System: Staphylococcus
MEASUREMENT_PROTOCOL: Antimicrobial activity against methicillin-susceptible coagulase-negative Staphylococcus after 20 to 24 hrs by broth microdilution method
Type: functional
EXPERIMENTAL_ENDPOINT: MIC90

CC[C@H]1OC(=O)[C@H](C)C(=O)[C@H](C)[C@@H](O[C@@H]2O[C@H](C)C[C@H](N(C)C)[C@H]2O)[C@](C)(OC)C[C@@H](C)C(=O)[C@H](C)[C@H]2N(CCCCn3cnc(-c4cccnc4)c3)C(=O)O[C@]12C [TELITHROMYCIN]	0.5 µg/mL
CC[C@H]1OC(=O)[C@H](C)[C@@H](O[C@H]2C[C@@](C)(OC)[C@@H](O)[C@H](C)O2)[C@H](C)[C@@H](O[C@@H]2O[C@H](C)C[C@H](N(C)C)[C@H]2O)[C@](C)(O)C[C@@H](C)C(=O)[C@H](C)[C@@H](O)[C@]1(C)O [ERYTHROMYCIN]	> 16 µg/mL
CCCCCCCCCC(=O)N[C@@H](Cc1c[nH]c2ccccc12)C(=O)N[C@H](CC(N)=O)C(=O)N[C@@H](CC(=O)O)C(=O)N[C@@H]1C(=O)NCC(=O)N[C@@H](CCCN)C(=O)N[C@@H](CC(=O)O)C(=O)N[C@H](C)C(=O)N[C@@H](CC(=O)O)C(=O)NCC(=O)N[C@H](CO)C(=O)N[C@@H]([C@H](C)CC(=O)O)C(=O)N[C@@H](CC(=O)c2ccccc2N)C(=O)O[C@@H]1C	1 µg/mL
CN[C@H](CC(C)C)C(=O)N[C@H]1C(=O)N[C@@H](CC(N)=O)C(=O)N[C@H]2C(=O)N[C@H]3C(=O)N[C@H](C(=O)N[C@H](C(=O)O)c4cc(O)cc(O)c4-c4cc3ccc4O)[C@H](O)c3ccc(c(Cl)c3)Oc3cc2cc(c3O[C@@H]2O[C@H](CO)[C@@H](O)[C@H](O)[C@H]2O[C@H]2C[C@](C)(N)[C@H](O)[C@H](C)O2)Oc2ccc(cc2Cl)[C@H]1O [VANCOMYCIN]	2 µg/mL
Cc1onc(-c2ccccc2)c1C(=O)N[C@@H]1C(=O)N2[C@@H]1SC(C)(C)[C@@H]2C(=O)O [OXACILLIN]	0.12 µg/mL

Attention now turns to another entry.
Task: Quick one: MIC90 for CC(=O)NC[C@H]1CN(c2ccc(N3CCOCC3)c(F)c2)C(=O)O1 [LINEZOLID] ?
Output: 2 µg/mL

###

MIC50 for assorted molecules
Test system: Streptococcus pneumoniae
MEASUREMENT_PROTOCOL: Antibacterial activity against penicillin-intermediate Streptococcus pneumoniae after 20 to 24 hrs by broth microdilution method
Type: functional
Give just the numeric value; µg/mL need not be written.

Use these answered entries as a reference point.
CCCCCCCCCCNCCN[C@@]1(C)C[C@H](O[C@H]2[C@H](Oc3c4cc5cc3Oc3ccc(cc3Cl)[C@@H](O)[C@@H](NC(=O)[C@@H](CC(C)C)NC)C(=O)N[C@@H](CC(N)=O)C(=O)N[C@H]5C(=O)N[C@H]3C(=O)N[C@H](C(=O)N[C@H](C(=O)O)c5cc(O)c(CNCP(=O)(O)O)c(O)c5-c5cc3ccc5O)[C@H](O)c3ccc(c(Cl)c3)O4)O[C@H](CO)[C@@H](O)[C@@H]2O)O[C@@H](C)[C@H]1O [TELAVANCIN]	0.015
CCCCCCCCCC(=O)N[C@@H](Cc1c[nH]c2ccccc12)C(=O)N[C@H](CC(N)=O)C(=O)N[C@@H](CC(=O)O)C(=O)N[C@@H]1C(=O)NCC(=O)N[C@@H](CCCN)C(=O)N[C@@H](CC(=O)O)C(=O)N[C@H](C)C(=O)N[C@@H](CC(=O)O)C(=O)NCC(=O)N[C@H](CO)C(=O)N[C@@H]([C@H](C)CC(=O)O)C(=O)N[C@@H](CC(=O)c2ccccc2N)C(=O)O[C@@H]1C	0.12
CO/N=C(\C(=O)N[C@@H]1C(=O)N2C(C(=O)O)=C(COC(N)=O)CS[C@H]12)c1ccco1 [CEFUROXIME]	0.5
CO/N=C(\C(=O)N[C@@H]1C(=O)N2C(C(=O)O)=C(CSc3nc(=O)c(O)nn3C)CS[C@H]12)c1csc(N)n1 [CEFTRIAXONE]	0.12

Attention now turns to another entry.
Task: Quick one: MIC50 for CN(C)[C@@H]1C(O)=C(C(N)=O)C(=O)[C@@]2(O)C(O)=C3C(=O)c4c(O)cccc4[C@@](C)(O)[C@H]3C[C@@H]12 [TETRACYCLINE] ?
Output: 0.25
